- Tested on: HS 578T breast
- test-summary: NCI-60 one-dose screen, 48 h
- protocol-conditions: 10 µM unless noted
- Protocol: Growth inhibition of the HS 578T human tumor cell line is measured as a screen for anti-cancer activity. Cells are grown in 96 well plates and exposed to the test compound for 48 hours. Compounds are tested at a single concentration, which is 10^-5 M for most compounds. The reported endpoint is percent growth (GI% or GIPRCNT), where numbers from 0 - 100% represent growth inhibition, and numbers from -100% - 0 represent cell death. For example, a value of 40 represents 60% growth inhibition. […]
Compounds without any hit were thinned out: in the full panel of roughly 83,000, 20% have a hit. Active and inactive are the calls of the source. Rule for the calls: active = growth percent below 10; inactive = the rest.
Returns: one label drawn from active, inactive

Answered examples (5):
compound: CN1CCN(C(=O)CCN(C(=O)Oc2cc3c(c4ccccc24)[C@H](CCl)CN3C(=O)c2cc3cc(OCCCN4CCC4)ccc3[nH]2)[C@H]2CCSSC2)CC1
cat: active

compound: CC(=O)c1c2c(c3ccc4c5ccccc5ccc4n13)C(=O)c1ccccc1C2=O
cat: inactive

compound: CC[C@]12C=CCN3CC[C@@]4(c5ccc(OC)cc5N(C)[C@H]4[C@@](O)(C(=O)OC)[C@@H]1OC(=O)CCC[P+](c1ccc(OC)cc1)(c1ccc(OC)cc1)c1ccc(OC)cc1)[C@@H]32
cat: active

compound: COc1ccc(-c2nc3ccc(-c4nnc(SCC(=O)Nc5ccc(/C(C)=N\O)cc5)o4)cc3[nH]2)cc1
cat: active

compound: Oc1ccc(Cl)c(Nc2nc(SCCN3CCOCC3)nc3c2cnn3CC(Cl)c2ccc(Br)cc2)c1 (stereo not drawn)
cat: active

// query Lab log entry: CC1=C(C(=O)OC(C)C)C(c2ccc(O)cc2)NC(=O)N1 (stereo not drawn) — outcome as called in the assay?
// result inactive

// query In this assay, the call recorded for `CS(=O)(=O)c1ccc(-n2nc(C(=O)NCc3ccccc3)cc2-c2ccc(Cl)cc2)cc1` was what?
// result inactive

// query Short answer needed: outcome of this test for `CN(C)c1nc(NCCNS(=O)(=O)c2ccc(C(=O)/C=C/c3ccccc3)cc2)nc(N2CCOCC2)n1` ?
// result inactive
